ASSAY_TARGET: glucocorticoid receptor (Homo sapiens, UniProt P04150)
EXPERIMENTAL_PROTOCOL: Assay for transrepression activity of the glucocorticoid agonists (NF-κB/ELAM-sPAP reporter, TNF stimulated)
Type: cell-based
CONDITION_SET: A549 cells, NF-κB responsive ELAM promoter-sPAP reporter; compound 1 hour, then TNF 10 ng/ml for 16 hours; read-out: pEC50 transrepression (converted)
ENDPOINT_LABEL: EC50

These recorded examples may help you get a feel for the data.
{"MOLECULE": "C[C@@H]1C[C@H]2[C@@H]3C[C@H](F)C4=CC(=O)C=C[C@]4(C)[C@@]3(F)[C@@H](O)C[C@]2(C)[C@@]1(OC(=O)OC(C)(C)C)C(=O)OCC#N", "ASSAY_TARGET": "glucocorticoid receptor (Homo sapiens, UniProt P04150)", "RESULT": "< 0.1 nM"}
{"MOLECULE": "CCC(CC)OC(=O)O[C@]1(C(=O)OCC#N)[C@H](C)C[C@H]2[C@@H]3C[C@H](F)C4=CC(=O)C=C[C@]4(C)[C@@]3(F)[C@@H](O)C[C@@]21C", "ASSAY_TARGET": "glucocorticoid receptor (Homo sapiens, UniProt P04150)", "RESULT": "< 0.316 nM"}
{"MOLECULE": "CCC(OC(=O)O[C@]1(C(=O)OCC#N)[C@H](C)C[C@H]2[C@@H]3C[C@H](F)C4=CC(=O)C=C[C@]4(C)[C@@]3(F)[C@@H](O)C[C@@]21C)C(C)C (some centres unmarked)", "ASSAY_TARGET": "glucocorticoid receptor (Homo sapiens, UniProt P04150)", "RESULT": "< 0.316 nM"}
{"MOLECULE": "CC(C)C1CCC(OC(=O)O[C@]2(C(=O)OCC#N)[C@H](C)C[C@H]3[C@@H]4C[C@H](F)C5=CC(=O)C=C[C@]5(C)[C@@]4(F)[C@@H](O)C[C@@]32C)CC1 (single isomer, unassigned) [Example 11B]", "ASSAY_TARGET": "glucocorticoid receptor (Homo sapiens, UniProt P04150)", "RESULT": "< 0.316 nM"}

With those in mind, consider the next molecule.
IN: Any idea what its EC50 is? The molecule is `C[C@@H]1C[C@H]2[C@@H]3C[C@H](F)C4=CC(=O)C=C[C@]4(C)[C@@]3(F)[C@@H](O)C[C@]2(C)[C@@]1(OC(=O)OCC(C)(C)C)C(=O)OCC#N`
OUT: < 0.316 nM

---

ASSAY_TARGET: glucocorticoid receptor (Homo sapiens, UniProt P04150)
Sequence (P04150 1-777): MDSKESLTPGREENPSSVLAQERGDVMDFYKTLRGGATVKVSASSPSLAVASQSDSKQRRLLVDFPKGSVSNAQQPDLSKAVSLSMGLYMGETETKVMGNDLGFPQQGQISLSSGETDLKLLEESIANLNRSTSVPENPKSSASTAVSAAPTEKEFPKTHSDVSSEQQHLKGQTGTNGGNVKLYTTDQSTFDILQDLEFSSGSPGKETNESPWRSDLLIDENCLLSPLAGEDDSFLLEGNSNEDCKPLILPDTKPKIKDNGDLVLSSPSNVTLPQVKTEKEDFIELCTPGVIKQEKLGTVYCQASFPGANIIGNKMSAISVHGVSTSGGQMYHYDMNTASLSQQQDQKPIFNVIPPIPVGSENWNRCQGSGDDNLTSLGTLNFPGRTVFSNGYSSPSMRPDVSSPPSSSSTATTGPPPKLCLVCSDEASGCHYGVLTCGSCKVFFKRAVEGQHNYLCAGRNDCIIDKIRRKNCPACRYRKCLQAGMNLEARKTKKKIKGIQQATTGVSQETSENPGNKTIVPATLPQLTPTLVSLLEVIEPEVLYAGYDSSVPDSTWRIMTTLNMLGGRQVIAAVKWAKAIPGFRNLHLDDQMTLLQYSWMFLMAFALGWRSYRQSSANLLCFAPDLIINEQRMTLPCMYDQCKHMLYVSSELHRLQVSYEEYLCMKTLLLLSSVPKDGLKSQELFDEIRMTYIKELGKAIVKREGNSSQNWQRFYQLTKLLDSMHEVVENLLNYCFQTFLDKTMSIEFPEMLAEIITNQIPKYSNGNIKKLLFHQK
EXPERIMENTAL_PROTOCOL: Assay for transactivation activity of the glucocorticoid agonists (MMTV-LTR renilla luciferase reporter)
Type: cell-based
CONDITION_SET: A549, A549 cells, 6 hour at 37° C., read-out: maximal response relative to Dexamethasone (100%), transactivation
Emax values for the molecules below.

These recorded examples may help you get a feel for the data.
{"MOLECULE": "CCCC(OC(=O)O[C@]1(C(=O)OCC#N)[C@H](C)C[C@H]2[C@@H]3C[C@H](F)C4=CC(=O)C=C[C@]4(C)[C@@]3(F)[C@@H](O)C[C@@]21C)C(C)C (stereo partly drawn)", "Emax": "< 40%"}
{"MOLECULE": "CC[C@H]1CC[C@H](OC(=O)O[C@]2(C(=O)OCC#N)[C@H](C)C[C@H]3[C@@H]4C[C@H](F)C5=CC(=O)C=C[C@]5(C)[C@@]4(F)[C@@H](O)C[C@@]32C)CC1 (relative stereo)", "Emax": "< 40%"}

IN: Any idea what its Emax is? The molecule is CCC(OC(=O)O[C@]1(C(=O)OCC#N)[C@H](C)C[C@H]2[C@@H]3C[C@H](F)C4=CC(=O)C=C[C@]4(C)[C@@]3(F)[C@@H](O)C[C@@]21C)C(C)C (stereo partly drawn)
OUT: < 40%
